# Test Protocol: Pharmacokinetic study in mice
# Type: in vivo
# Condition Info: mouse, plasma, oral intragastric administration 5 mg/Kg
Structures can show the parent of a compound that is named as a salt.
Reported Endpoint: Cmax (nM)
Write down the numeric answer in nM and omit the unit.

Data point: CCCC[C@](C)(Cc1ncn[nH]1)Nc1nc(N)nc2cnccc12 [Hydrochloride of compound of formula (I)] ; Cmax = 421

---

# Test Protocol: Pharmacokinetic study in mice
# Assay type: in vivo
# Condition Info: mouse, plasma, 5 mg/Kg oral vs 1 mg/Kg intravenous, read-out: Bioavailability (F%)
Counter-ions that a name gives are not always drawn.
Reported Endpoint: bioavailability (%)
Express your answer in %, writing the number without its unit.

bioavailability reading for CCCC[C@](C)(Cc1ncn[nH]1)Nc1nc(N)nc2cnccc12 [Hydrochloride of compound of formula (I)] : 27.7

---

# Test Protocol: Pharmacokinetic study in mice
# Assay type: in vivo
# Condition Info: mouse, plasma, intravenous injection 1 mg/Kg
# Protocol: Experimental Example 3: Pharmacokinetic Study in Mice This experiment was intended to evaluate the pharmacokinetic behavior of the compound after a single intravenous injection or intragastric administration in mice. The concentration of the test compound in plasma was determined by high performance liquid chromatography-tandem mass spectrometry (LC-MS/MS). […]
Structures can show the parent of a compound that is named as a salt.
Reported Endpoint: AUC(0-t) (µM·h)
Only the number, expressed in µM·h, is required.

Reported AUC(0-t) ( CCCC[C@](C)(Cc1ncn[nH]1)Nc1nc(N)nc2cnccc12 [Hydrochloride of compound of formula (I)] ) = 0.45

---

# Test Protocol: Pharmacokinetic study in mice
# Assay type: in vivo
# Condition Info: mouse, plasma, oral intragastric administration 5 mg/Kg
Counter-ions that a name gives are not always drawn.
Reported Endpoint: AUC(0-t)
Write the numeric value and append its unit.

Recorded AUC(0-t) (compound CCCC[C@](C)(Cc1ncn[nH]1)Nc1nc(N)nc2cnccc12 [Hydrochloride of compound of formula (I)] ): 0.624 µM·h

---

# Test Protocol: Pharmacokinetic study in mice
# Type: in vivo
# Condition Info: mouse, plasma, intravenous injection 1 mg/Kg, read-out: Vdss
# Protocol: Experimental Example 3: Pharmacokinetic Study in Mice This experiment was intended to evaluate the pharmacokinetic behavior of the compound after a single intravenous injection or intragastric administration in mice. The concentration of the test compound in plasma was determined by high performance liquid chromatography-tandem mass spectrometry (LC-MS/MS). […]
Counter-ions that a name gives are not always drawn.
Reported Endpoint: Vd (L/kg)
Respond numerically; units are L/kg and should not be typed.

The reported value for CCCC[C@](C)(Cc1ncn[nH]1)Nc1nc(N)nc2cnccc12 [Hydrochloride of compound of formula (I)] in terms of Vd is 1.75

---

# Target Entity: human TLR7 (Homo sapiens (Human))
# Sequence (Q9NYK1 27-1049): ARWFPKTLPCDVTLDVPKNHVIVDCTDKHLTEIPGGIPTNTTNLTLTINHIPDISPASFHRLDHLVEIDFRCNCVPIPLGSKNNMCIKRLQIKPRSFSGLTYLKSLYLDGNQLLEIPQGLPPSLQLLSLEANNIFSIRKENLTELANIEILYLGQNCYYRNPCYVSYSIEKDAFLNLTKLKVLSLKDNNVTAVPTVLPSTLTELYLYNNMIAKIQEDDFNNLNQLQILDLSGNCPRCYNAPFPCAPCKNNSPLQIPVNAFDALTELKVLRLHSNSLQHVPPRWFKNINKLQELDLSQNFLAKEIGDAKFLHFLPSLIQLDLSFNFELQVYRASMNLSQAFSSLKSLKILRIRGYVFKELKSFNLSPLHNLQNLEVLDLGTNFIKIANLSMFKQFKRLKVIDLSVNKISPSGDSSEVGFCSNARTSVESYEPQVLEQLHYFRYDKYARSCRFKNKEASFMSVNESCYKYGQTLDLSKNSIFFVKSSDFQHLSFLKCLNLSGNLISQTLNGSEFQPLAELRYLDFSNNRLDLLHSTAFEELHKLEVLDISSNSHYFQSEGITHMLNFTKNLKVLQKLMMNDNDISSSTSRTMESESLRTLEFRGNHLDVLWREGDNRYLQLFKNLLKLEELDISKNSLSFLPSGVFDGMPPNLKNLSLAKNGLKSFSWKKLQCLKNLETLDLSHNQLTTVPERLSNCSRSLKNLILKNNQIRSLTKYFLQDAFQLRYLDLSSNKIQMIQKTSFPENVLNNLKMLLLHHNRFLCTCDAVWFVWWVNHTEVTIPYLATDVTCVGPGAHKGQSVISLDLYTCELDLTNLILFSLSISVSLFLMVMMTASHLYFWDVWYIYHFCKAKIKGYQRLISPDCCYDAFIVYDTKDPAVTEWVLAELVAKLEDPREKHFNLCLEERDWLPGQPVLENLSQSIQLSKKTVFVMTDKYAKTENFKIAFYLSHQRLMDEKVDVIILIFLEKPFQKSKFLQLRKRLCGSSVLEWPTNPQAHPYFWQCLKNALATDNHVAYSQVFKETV
# Test Protocol: HEK-Blue hTLR7 SEAP reporter agonist assay
# Condition Info: HEK-Blue hTLR7 cells, 24 hours, SEAP OD650
Structures can show the parent of a compound that is named as a salt.
Reported Endpoint: EC50 (µM)
Express your answer in µM, writing the number without its unit.

Notebook: CCCC[C@](C)(Cc1ncn[nH]1)Nc1nc(N)nc2cnccc12 [Hydrochloride of compound of formula (I)] , EC50 read as 33.3

---

# Test Protocol: Pharmacokinetic study in mice
# Format: in vivo
# Condition Info: mouse, plasma, oral intragastric administration 5 mg/Kg
Counter-ions that a name gives are not always drawn.
Reported Endpoint: Tmax (min)
# output: bare number, implied unit min

Recorded result, CCCC[C@](C)(Cc1ncn[nH]1)Nc1nc(N)nc2cnccc12 [Hydrochloride of compound of formula (I)] , Tmax: 30

Sourced from patent US20230303557A1
